assay: Mammalian cytotoxicity assay (resazurin), COS-1 cells; type: cell-based; details: African green monkey, read-out: Cytotox. COS-1
Consider the following molecules; for each one, report its IC50 at 24 h.

molecule	result
COCCNC(=O)c1ccc(-c2ccc(O)c3c2C[C@H]2C[C@H]4[C@H](N(C)C)C(O)=C(C(N)=O)C(=O)[C@@]4(O)C(O)=C2C3=O)o1	> 20 µM
CC(C)N(C)CC(=O)c1ccc(O)c2c1C[C@H]1C[C@H]3[C@H](N(C)C)C(O)=C(C(N)=O)C(=O)[C@@]3(O)C(O)=C1C2=O	> 150 µM
CN(C)[C@@H]1C(O)=C(C(N)=O)C(=O)[C@@]2(O)C(O)=C3C(=O)c4c(O)ccc(-c5cccc(C(=O)NCCN6CCCCC6)c5)c4C[C@H]3C[C@@H]12	> 41 µM
CN(C)CCNC(=O)c1cccc(-c2ccc(O)c3c2C[C@H]2C[C@H]4[C@H](N(C)C)C(O)=C(C(N)=O)C(=O)[C@@]4(O)C(O)=C2C3=O)c1	> 200 µM
CC1CCN(CC(=O)c2ccc(O)c3c2C[C@H]2C[C@H]4[C@H](N(C)C)C(O)=C(C(N)=O)C(=O)[C@@]4(O)C(O)=C2C3=O)CC1	> 136 µM

Below are 7 molecules. Give each one its IC50 at 24 h.
1. CN(C)[C@@H]1C(O)=C(C(N)=O)C(=O)[C@@]2(O)C(O)=C3C(=O)c4c(O)ccc(-c5cnc6ccccc6c5)c4C[C@H]3C[C@@H]12
2. CN(C)[C@@H]1C(O)=C(C(N)=O)C(=O)[C@@]2(O)C(O)=C3C(=O)c4c(O)ccc(C(=O)CNCc5ccccn5)c4C[C@H]3C[C@@H]12
3. CC(=O)Nc1cccc(-c2ccc(O)c3c2C[C@H]2C[C@H]4[C@H](N(C)C)C(O)=C(C(N)=O)C(=O)[C@@]4(O)C(O)=C2C3=O)c1
4. CN(CCC#N)Cc1cccc(-c2ccc(O)c3c2C[C@H]2C[C@H]4[C@H](N(C)C)C(O)=C(C(N)=O)C(=O)[C@@]4(O)C(O)=C2C3=O)c1
5. CC(C)OC(=O)c1cccc(-c2ccc(O)c3c2C[C@H]2C[C@H]4[C@H](N(C)C)C(O)=C(C(N)=O)C(=O)[C@@]4(O)C(O)=C2C3=O)c1
6. CN(C)[C@@H]1C(O)=C(C(N)=O)C(=O)[C@@]2(O)C(O)=C3C(=O)c4c(O)ccc(-c5cccc(C(N)=O)c5)c4C[C@H]3C[C@@H]12
7. CN(C)[C@@H]1C(O)=C(C(N)=O)C(=O)[C@@]2(O)C(O)=C3C(=O)c4c(O)ccc(-c5cccc(C(=O)NCCN6CCOCC6)c5)c4CC3CC12 (stereo partly drawn)

Response:
1. 15.9 µM
2. > 13.4 µM
3. > 16.3 µM
4. > 13.6 µM
5. 4.56 µM
6. > 15.7 µM
7. > 13.6 µM
